System: IGROV1 ovarian
Assay: NCI tumour cell line growth inhibition, 48 h
result.type: TGI

Some solved cases for reference:
>  <compound>
NC1N=Nc2ccccc21 (centres undefined)

>  <TGI>
> 100 µM

$$$$
>  <compound>
COc1ccc2c(c1)Oc1cc(O)ccc1[C@H]2c1ccccc1C(=O)NC(C)c1ccccc1 (some centres undefined)

>  <TGI>
31.5 µM

$$$$
>  <compound>
CCN1CCC(CC(=O)Nc2n[nH]c3nnc(-c4cccc(F)c4F)cc23)CC1

>  <TGI>
> 25 µM

$$$$
>  <compound>
CCc1ccccc1NC(=O)C(=O)C(C#N)c1ccccc1Cl (centres undefined)

>  <TGI>
> 100 µM

$$$$
>  <compound>
CC[C@@]1(O)C[C@H](OC2CC(N(C)C)C(O)C(C)O2)c2c(cc3c(c2O)C(=O)c2c(O)ccc(O)c2C3=O)[C@H]1C(=O)OC (some centres undefined)

>  <TGI>
1.35 µM

$$$$
>  <compound>
CN(C)Cc1c(O)ccc2c1c1c(n2C)C(=O)c2ccccc2C1=O

>  <TGI>
85.2 µM

$$$$
>  <compound>
CCC12CCCN(Cc3ccccc3)C1c1c(n(C)c3ccccc13)C(CO)C2 (centres undefined)

>  <TGI>
218 µM

$$$$
>  <compound>
O=c1cc(-c2ccccc2)[nH]c2ncccc12

>  <TGI>
> 100 µM

$$$$
>  <compound>
CC1=C/C=C/C(=O)O[C@@H]([C@H](C)[C@H](O)[C@@H](C)NC(=O)C(C)C)[C@H](C)/C=C/C(C)=C/[C@H]2C=CCC[C@@]2(C)\C=C\1

>  <TGI>
10.7 µM

$$$$
>  <compound>
CC(C)(C)COC(=O)C(C)(C)NC(=O)C(CC(=O)OCc1ccccc1)NC(=O)OCc1ccccc1 (centres undefined)

>  <TGI>
> 100 µM

$$$$

GET /values?readout=TGI&item= OCC1OC2c3ccccc3COC2C1OCc1ccccc1 (centres undefined)
> 100 µM

GET /values?readout=TGI&item= c1ccc2c(c1)SC(=C1Sc3ccccc3S1)S2
> 100 µM

GET /values?readout=TGI&item= Cc1[nH]c(=O)nc(N/N=C/c2ccc(O)cc2)c1C(=O)Nc1ccc(O)cc1
> 100 µM

GET /values?readout=TGI&item= CC(=O)O[C@H]1C(=O)[C@@]2(C)[C@H]([C@H](OC(=O)c3ccccc3)[C@]3(O)C[C@H](OC(=O)[C@H](O)[C@@H](NC(=O)c4ccccc4)c4ccc5ccccc5c4)C(C)=C1C3(C)C)[C@]1(OC(C)=O)CO[C@@H]1C[C@@H]2O
> 42.3 µM

GET /values?readout=TGI&item= Cc1cc(Cl)nc2ccc(Cc3ccc4nc(Cl)cc(C)c4c3)cc12
> 100 µM

GET /values?readout=TGI&item= O=c1c2c3c(sc2nc2n1N=CN(c1ccccc1)C2)CCCC3
> 100 µM

GET /values?readout=TGI&item= C/C=C1/CN2CCC34c5ccccc5N(C)C23C2CC1C4(C(=O)OC)C(OC(C)=O)O2 (centres undefined)
> 100 µM

GET /values?readout=TGI&item= CC(=O)OCC1OC(n2cnc3nc(Br)[nH]c(=O)c32)C(OC(C)=O)C1OC(C)=O (centres undefined)
> 100 µM

GET /values?readout=TGI&item= c1coc(-c2nccc3c2[nH]c2ccccc23)c1
> 100 µM

###

The following molecules are listed with their measured TGI values.
Test system: U251 CNS
Experiment: NCI tumour cell line growth inhibition, 48 h

>  <molecule>
CC1=NN(C(=O)Cc2ccccc2)C(=O)/C1=C\c1ccc([N+](=O)[O-])cc1

>  <TGI>
> 100 µM

$$$$
>  <molecule>
COc1ccc(-c2cc(/C=C3\C(=O)Nc4cc(Cl)ccc43)[nH]n2)cc1

>  <TGI>
25.8 µM

$$$$
>  <molecule>
COc1cc2c3c(n(CCCN(CCCN(CCCn4c5c(c6ccccc6c4=O)C(=O)c4ccccc4-5)C(=O)OC(C)(C)C)C(=O)OC(C)(C)C)c(=O)c2cc1OC)-c1cc2c(cc1C3=O)OCO2

>  <TGI>
> 100 µM

$$$$

Next item in the queue.
GET /values?readout=TGI&item= CC(=O)OCC1OC(N2C(=O)NC(=O)C3C=C4CCCCC4=CC32)CC1OC(C)=O (centres undefined)
> 100 µM

###

Tested on: COLO 205 colon
Assay: NCI tumour cell line growth inhibition, 48 h
The following molecules are listed with their measured TGI values.
The reply should contain only the number, in µM.

>  <molecule>
Cn1c2ccc(F)cc2c2ccc3c(c21)C(=O)C=CC3=O

>  <target.or.system>
COLO 205 colon

>  <value.measured>
21.6

$$$$
>  <molecule>
CCC12CCCN(Cc3ccccc3)C1c1c(n(C)c3ccccc13)C(CO)C2 (stereo unspecified)

>  <target.or.system>
COLO 205 colon

>  <value.measured>
75.2

$$$$
>  <molecule>
c1coc(-c2nccc3c2[nH]c2ccccc23)c1

>  <target.or.system>
COLO 205 colon

>  <value.measured>
33.5

$$$$

Next item in the queue.
GET /values?readout=TGI&item= CCc1ccccc1NC(=O)C(C#N)C1=C(Cl)C(=O)c2ccccc2C1=O (stereo unspecified)
31.1

###

Tested on: MDA-MB-435
Hello, when you answer, please use one of the following outcomes: Y (active), N (inactive)

The following compounds have reported results that may help.
>  <smiles.str>
NC(=O)c1cccc2c(N[C@H](CN3CCC3)c3ccc(Cl)c(C(F)(F)F)c3)ncnc12

>  <class.assignment>
N

$$$$
>  <smiles.str>
COc1ccc(/C=C/C(=O)c2c(O)ccc3c(C)c(C(=O)O)oc23)cc1

>  <class.assignment>
N

$$$$
>  <smiles.str>
COc1ccc(-c2cc(/C=C3\C(=O)Nc4cc(Cl)ccc43)[nH]n2)cc1

>  <class.assignment>
Y

$$$$

Field: outcome | Entry: C/C(CCC(=O)O)=N/Nc1ccc([N+](=O)[O-])cc1
N

Field: outcome | Entry: CCCCCCCCCCCCCC[n+]1ccccc1
N

Field: outcome | Entry: COC(=O)c1ccc2nc(-c3cc4ccccc4n3C)n(CCCCOc3cc4c(cc3OC)C(=O)N3CCC[C@H]3C=N4)c2c1
N

Field: outcome | Entry: Cc1ccccc1C1=C(c2cn(C)c3ccccc23)C(=O)NC1=O
N

###

Tested on: HCC-2998 colon
Assay: NCI tumour cell line growth inhibition, 48 h; in the data active = GI50 below about 0.43 µM; inactive = the rest
Hello, when you answer, please use one of the following outcomes: yes = active, no = inactive

>  <compound>
C[C@@H](N)COc1ccc(-c2cnc3ccc(N[C@H](C)c4cccc(F)c4)nn23)cc1

>  <class.assignment>
no

$$$$
>  <compound>
COC1=CC(c2ccc[nH]2)=N/C1=C\c1[nH]c(C)c(C(=O)CCC(=O)Oc2ccc3c(c2)CCC2C3CC[C@]3(C)[C@@H](O)CC[C@@H]23)c1C (stereo not given in full)

>  <class.assignment>
no

$$$$
>  <compound>
COC(=O)c1cc(NC(=O)c2cc(NC(=O)c3cc([N+](=O)[O-])n(C)c3)cn2C)cn1C

>  <class.assignment>
no

$$$$

Field: outcome | Entry: O=C(/C=C/C12c3ccccc3C(c3ccccc31)C1C(=O)N(c3ccc(Cl)cc3)C(=O)C12)c1ccccn1 (stereo not given)
yes

Field: outcome | Entry: CCCCCCC1N=C(N)N=C(N)N1c1cccc(Cl)c1 (stereo not given)
no

###

The following molecules are listed with their measured GI50 values.
System: CAKI-1 renal
Test: NCI tumour cell line growth inhibition, 48 h

>  <smiles.str>
C[C@@H](N)COc1ccc(-c2cnc3ccc(N[C@H](C)c4cccc(F)c4)nn23)cc1

>  <GI50>
2870 nM

$$$$
>  <smiles.str>
CCN1CCC(CC(=O)Nc2n[nH]c3nnc(-c4cccc(F)c4F)cc23)CC1

>  <GI50>
> 25000 nM

$$$$
>  <smiles.str>
CC1(C)CC(=O)C=C(/C=C/Sc2c(Cl)c(Cl)nc(Cl)c2Cl)C1

>  <GI50>
2230 nM

$$$$

Next item in the queue.
GET /values?readout=GI50&item= Cc1ccc([P+](Cc2ccccc2)(c2ccccc2)c2ccccc2)cc1
5830 nM

###

Test system: HOP-92 NSCLC
Test: NCI tumour cell line growth inhibition, 48 h
result.type: TGI

>  <compound>
Cn1cc(C2=C(c3c4n(c5ccccc35)CCNC4)C(=O)NC2=O)c2ccccc21

>  <TGI>
> 25 µM

$$$$
>  <compound>
C/C=C1/CN2CCC34c5ccccc5N(C)C23C2CC1C4(C(=O)OC)C(OC(C)=O)O2 (stereo unspecified)

>  <TGI>
> 100 µM

$$$$
>  <compound>
Cc1c(C(=O)O)n2c(=S)[nH]nc2c2ccccc12

>  <TGI>
> 100 µM

$$$$
>  <compound>
Cc1nn(C(=O)c2ccccc2O)c2c1C(c1ccc(O)cc1O)SC(N)=N2 (stereo unspecified)

>  <TGI>
> 10 µM

$$$$
>  <compound>
COc1cc(C2c3cc4c(cc3OC(NNc3ccccc3)C2C)OCO4)cc(OC)c1OC (stereo unspecified)

>  <TGI>
52.1 µM

$$$$
>  <compound>
CC(C)(C)NC1=NC(C(F)(F)F)(C(F)(F)F)NC(=O)N1

>  <TGI>
> 100 µM

$$$$
>  <compound>
CN(C)CN1CSC(=S)N(CN(C)C)C1

>  <TGI>
> 100 µM

$$$$
>  <compound>
CN1C(=O)CC2(C)c3cc(O)cc(Br)c3N(C)C12 (stereo unspecified)

>  <TGI>
> 100 µM

$$$$

GET /values?readout=TGI&item= O=C([O][Hg][c]1ccccc1)c1ccccc1
2.72 µM

GET /values?readout=TGI&item= CC(=O)OCC1OC(N2C(=O)NC(=O)C3C=C4CCCCC4=CC32)CC1OC(C)=O (stereo unspecified)
> 100 µM

GET /values?readout=TGI&item= COC1OCC(O)C(NC(=O)N(C)N=O)C1O (stereo unspecified)
> 100 µM
